Values compiled from the nanobody polyreactivity screen of Harvey et al. (2022).

- TEST NAME: yeast display, Sf9 membrane polyspecificity reagent, FACS + sequencing; frameworks hold sequencing errors
REPORTED METRIC: polyreactivity (PSR sort gate)

For orientation, consider the following solved cases.
QVQLVESGGGLVQAGGSLRLSCAASGSTFKRYAMGWYRQAPGKEREFVAGISSRGSRTYYADSVKGRFTISRDNAKNTVYLQMNSLKPEDTAGYYCAVSGNHVSPPYGYWGQGTQVTVSS	high polyreactivity
QVQLVESGGGLVQAGGSLRLSCAASGSIFDRNAMGWYRQAPGKERELVAAITSGGSTYYADSVKGRFTISRDNAKNTVYLQMNSLKPEDTGVYYCNADADPPVPLYYWGQGTQVTVSS	low polyreactivity
QVQLVESGGGLVQAGGSLRLSCAASGITFTPYAMGWYRQAPGKERELVAAITSGGSTNYADSVKGRFTISRDNAKNTVYLQMNSLKPEDTAVYYCAAGRWPAPWYTRNYWGQGTQVTVSS	low polyreactivity
QVQLVESGGGLDQAGGSLRLSCAASGRTFRHYAMGWYRQAPGKERELVASIRWNGASTNYADSVKGRFTISRDNAKNTVYLQMNSLKPEDTAVYYCAARFGSGFNYWGQGTQVTVSS	high polyreactivity
QVHIVESGGGLVQAGGSLRLICAASGRTFNGYVMGWYRQAPGKEREFVAVINWSGGNTYYADSVKGRFTISRDNAKNTVYLQMNSLKPEDTAVYYCAARRVRSYAYDYWGQGTQVTVSS	high polyreactivity
QVQLVESGGGLVQAGGSLRLSCAASGIIFRTYAMGWYRQAPGKERELVAAITGRGSNTYYADSVKGRFTISRDNAKNTVYLQMNSLKPEETAVYYCNARYYDYRVALRYDYWGQGTQVTVSS	high polyreactivity

Exercise: Return polyreactivity (PSR sort gate) (reported value) for this sequence: QVQLVESGGGLVQAGGSLRLSCDASGSTFRANAMGWYRQAPGKERELVAAISWSGGRTYYADSVKGRFTISRDNAKNTVYLQMNSLKPEYTAVYYCAAPKLTSYDSWGQGTQVTVSS
Solution: high polyreactivity

Exercise: Return polyreactivity (PSR sort gate) (reported value) for this sequence: QVQLVESGGGLVQAGGSLRLSCAASGFIFIRYAMGWYIQAPGKERELVASSTGRGGSTYYADSVKVRFTISRDNAKNTVYLQMNSLKPEDTAVYYCAAYYRYPTGWRWGGYYLYDYWGQGTQVTVSS
Solution: high polyreactivity

Exercise: Return polyreactivity (PSR sort gate) (reported value) for this sequence: QVQLVESGGGLVQAGGSLRLSCAASGRIFRHYAMGWYRQAPGKERELVAAISGGGGRTYYADSVKGRFTISRDNAKNTVYLQMNSLKPEDTAVYYCAKRPSYAYSRYRKGHDYWGQGTQVTVSS
Solution: high polyreactivity

Exercise: Return polyreactivity (PSR sort gate) (reported value) for this sequence: QVQLVESGGGLVQAGGSLRLSCAASGSIFYPYAMGWYRQAPGKEREFVAVISKGGTNTYYADSVKGRFTISRDNAKNTVYLQMNSLKPEDTAVYYCAARVDTYRAKYYYWGQGTQVTVSS
Solution: high polyreactivity

Exercise: Return polyreactivity (PSR sort gate) (reported value) for this sequence: QVQLVESGGGLVQAGGSLRLSCAAYGSIFYSYAMGWYRQAPGKERELVASIRIGSSTNYADSVKGRFTISRDNAKNTVYLQMNSLKPEDSAVYYCAARRFYKYYYGSDYWGQGTQVTVSS
Solution: high polyreactivity

Exercise: Return polyreactivity (PSR sort gate) (reported value) for this sequence: QVQLLESGGGLVQAGGSLRLSCAASGFTFSRYAMGWYRQAPGKERELVAAITSSGGSTYYADSVKGRFTISRDNAKNTVYLQMLSLKPEDSAVYYCAAGKYTASNGYGYWGQGTQVTVSS
Solution: high polyreactivity

Exercise: Return polyreactivity (PSR sort gate) (reported value) for this sequence: QVQLVESGGGLVQAGGSLRLSCAASGSTIPPYVMGWYRQAPGKERELVAAISSSTSSTYYADSVKGRFTISRDNAKNTVYLQMNSLKPEDTAVYYCADEYYTYEYIYDYWGQGTQVTVSS
Solution: high polyreactivity

Exercise: Return polyreactivity (PSR sort gate) (reported value) for this sequence: QVQLVESGGGLVQAGGSLRLSCAASGLIFKFYPMGWYRQAPGKERELVASIRGSGDNTYYADSVKGRFTISRDNAKNTVYLQMNSLKPEDTAVYYCNARASYSWHGIRGKYDYWGQGTQVTVSS
Solution: high polyreactivity
